target: Cbl-B (Homo sapiens); construct: MSD-Based Assay for Degradation of Cbl-B in THP-1 Cells; endogenous in cells; host or cells: THP-1 (title) / Jurkat (protocol text); experiment: MSD-based assay for degradation of Cbl-B in THP-1 cells; assay type: cell-based; conditions: Cbl-B degradation, Jurkat cells seeded (heading: THP-1 cells), 24 hours incubation, MSD readout
Sequence (Q13191 whole entry): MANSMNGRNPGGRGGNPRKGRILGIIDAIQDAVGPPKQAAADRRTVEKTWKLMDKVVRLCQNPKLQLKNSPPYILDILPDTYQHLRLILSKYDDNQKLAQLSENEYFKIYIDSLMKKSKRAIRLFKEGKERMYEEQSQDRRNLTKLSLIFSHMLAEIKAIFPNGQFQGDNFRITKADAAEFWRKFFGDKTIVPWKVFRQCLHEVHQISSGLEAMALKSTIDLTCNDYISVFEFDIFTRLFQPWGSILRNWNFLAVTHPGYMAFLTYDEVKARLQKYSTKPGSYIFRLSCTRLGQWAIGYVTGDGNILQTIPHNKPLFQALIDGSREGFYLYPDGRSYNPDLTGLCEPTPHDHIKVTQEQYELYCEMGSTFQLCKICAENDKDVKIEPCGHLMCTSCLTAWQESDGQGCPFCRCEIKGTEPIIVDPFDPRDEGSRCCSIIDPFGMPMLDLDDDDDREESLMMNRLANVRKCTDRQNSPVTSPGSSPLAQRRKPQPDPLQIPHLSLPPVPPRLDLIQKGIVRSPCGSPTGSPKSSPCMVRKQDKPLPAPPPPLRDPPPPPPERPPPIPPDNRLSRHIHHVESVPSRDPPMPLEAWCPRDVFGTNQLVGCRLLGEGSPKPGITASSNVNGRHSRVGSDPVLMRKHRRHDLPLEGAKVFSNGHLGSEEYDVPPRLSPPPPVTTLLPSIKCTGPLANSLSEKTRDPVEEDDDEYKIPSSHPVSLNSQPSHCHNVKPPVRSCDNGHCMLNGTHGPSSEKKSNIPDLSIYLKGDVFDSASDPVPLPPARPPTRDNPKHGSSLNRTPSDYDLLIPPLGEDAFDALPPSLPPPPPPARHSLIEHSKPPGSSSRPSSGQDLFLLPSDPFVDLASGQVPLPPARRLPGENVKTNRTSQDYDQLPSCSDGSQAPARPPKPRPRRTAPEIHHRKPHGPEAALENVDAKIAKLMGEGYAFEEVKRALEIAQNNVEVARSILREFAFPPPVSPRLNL
measurementLabel: DC50

{"compound": "Cn1cnnc1[C@@H](c1cccc(N2Cc3c(cc(CN4CCC(OCCOCc5ccc(COCCNc6cccc7c6C(=O)N(C6CCC(=O)NC6=O)C7=O)cc5)CC4)cc3C(F)(F)F)C2=O)c1)C1CCC1 (some centres unmarked) [Compound 22]", "measurementLabel": "DC50", "result": "30 to 300 nM"}
{"compound": "CN(CCOCc1cc(C(F)(F)F)c2cn(-c3cccc([C@H](c4nncn4C)C4CCC4)c3)c(=O)n2c1)C(=O)c1ccc(N2CCN(c3ccc4c(c3)CN([C@H]3CCC(=O)NC3=O)C4=O)CC2)cc1 (single isomer, unassigned) [Compound 148]", "measurementLabel": "DC50", "result": "30 to 300 nM"}
{"compound": "Cn1cnnc1CC1(c2cccc(-n3cc4c(C(F)(F)F)cc(CN5CCC[C@@H](OC6CCN(C(=O)c7ccc(N8CCN(c9ccc%10c(c9)CN([C@H]9CCC(=O)NC9=O)C%10=O)CC8)cc7)CC6)C5)cn4c3=O)c2)COC1 (single isomer, unassigned) [Compound 264]", "measurementLabel": "DC50", "result": "< 30 nM"}
{"compound": "CN(CCN(C)C(=O)c1cc(C(F)(F)F)c2cn(-c3cccc([C@H](c4nncn4C)C4CCC4)c3)c(=O)n2c1)C(=O)c1ccc(N2CCN(c3ccc4c(c3)CN([C@H]3CCC(=O)NC3=O)C4=O)CC2)cc1 (single isomer, unassigned) [Compound 142]", "measurementLabel": "DC50", "result": "> 10000 nM"}
{"compound": "CN(CCOC1CCN(Cc2cc(C(F)(F)F)c3cn(-c4cccc([C@H](c5nncn5C)C5CCC5)c4)c(=O)n3c2)CC1)C(=O)c1ccc(C2CCN(c3ccc4c(c3)CN([C@@H]3CCC(=O)NC3=O)C4=O)CC2)cc1 (single isomer, unassigned) [Compound 107]", "measurementLabel": "DC50", "result": "30 to 300 nM"}
{"compound": "CN(CCOC1CCN(Cc2cc(C(F)(F)F)c3cn(-c4cccc([C@H](c5nncn5C)C5CCC5)c4)c(=O)n3c2)CC1)C(=O)c1ccc(N2C3CC2CN(c2ccc4c(c2)CN([C@H]2CCC(=O)NC2=O)C4=O)C3)cc1 (single isomer, unassigned) [Compound 146]", "measurementLabel": "DC50", "result": "> 10000 nM"}
{"compound": "Cn1cnnc1[C@@H](c1cccc(N2Cc3c(cc(CN4CCC[C@@H](OCc5ccc(CC6CCN(c7ccc8c(c7)CN([C@H]7CCC(=O)NC7=O)C8=O)CC6)cc5)C4)cc3C(F)(F)F)C2=O)c1)C1CCC1 (single isomer, unassigned) [Compound 194]", "measurementLabel": "DC50", "result": "30 to 300 nM"}
{"compound": "Cn1cnnc1[C@@H](c1cccc(-n2cc3c(C(F)(F)F)cc(CN4CCC(CC(=O)N5CCC(C6CCN(c7ccc8c(c7)CN([C@@H]7CCC(=O)NC7=O)C8=O)CC6)CC5)CC4)cn3c2=O)c1)C1CCC1 (single isomer, unassigned) [Compound 177]", "measurementLabel": "DC50", "result": "300 to 1000 nM"}
